So I've got a bunch of variants here, and I need their self-cleavage values.
B1: HDV Ribozyme (parent)
chain: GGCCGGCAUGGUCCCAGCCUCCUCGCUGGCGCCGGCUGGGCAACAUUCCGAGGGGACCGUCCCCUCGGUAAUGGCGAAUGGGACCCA

# Variants of: B1
# assayProcedure: self-cleavage, relative activity (ratio to wild type); higher = more cleavage; co-transcriptional

Sample records with self-cleavage:
mutantLabel: G28U A51G
self-cleavage: 0.117

mutantLabel: U9A U23C
self-cleavage: 1.08

mutantLabel: C19G G73C
self-cleavage: 0.0244

mutantLabel: C3G C26U
self-cleavage: 1.2

mutantLabel: C22U G53C
self-cleavage: 0.63

mutantLabel: C19A A78U
self-cleavage: 0.138

List self-cleavage for every entry below, keeping the order given.
1. U9G C13G
2. U23G C49G
3. U60C C75U
4. C24U G52C
5. G10U A16C

Output line:
0.111
0.346
0.203
0.884
0.906

For each of the variants below, state self-cleavage.
1. U37C A78G
2. G28A G53C
3. A16C U72A
4. G52U U65G
5. A45G G50U

Output line:
1. 0.475
2. 0.0831
3. 0.437
4. 0.767
5. 1.16

For every listed record, write down its self-cleavage.
1. G31A A77C
2. G67U A78U

Output line:
0.199
0.253

Entry C13G C62A ; self-cleavage = 0.0692
